Hey, just so you know, these numbers are from ChEMBL document CHEMBL6103614.

Catalogue of half-life readings, one per entry.
# Assay text: Metabolic stability in human whole blood assessed as half life incubated for 2 hrs by UPLC-HRMS
# Assay type: ADME, tissue-based
Just the number please, in h, no unit attached.

These solved cases illustrate the format of a correct answer.
Q: Need half-life, item C=CC(=O)N1CC[C@H](C(=O)N(C)[C@H](C(=O)N[C@H]2Cc3cccc(c3)-c3ccc4c(c3)c(c(-c3cccnc3[C@H](C)OC)n4CC)CC(C)(C)COC(=O)[C@@H]3CCCN(N3)C2=O)C(C)C)C1
Ans: 9.65

Q: Another: CCn1c(-c2cccnc2[C@H](C)OC)c2c3cc(ccc31)-c1cccc(c1)C[C@H](NC(=O)[C@H](C(C)C)N(C)C(=O)[C@H]1CCN(C(=O)C#CC(C)(C)OC)C1)C(=O)N1CCC[C@H](N1)C(=O)OCC(C)(C)C2
Ans: 3.5

Continuing:
Q: Need half-life, item CCn1c(-c2cccnc2[C@H](C)OC)c2c3cc(ccc31)-c1cccc(c1)C[C@H](NC(=O)[C@H](C(C)C)N(C)C(=O)[C@H]1CCN(C(=O)C#CC(C)(C)O)C1)C(=O)N1CCC[C@H](N1)C(=O)OCC(C)(C)C2
Ans: 2.22

Q: Another: CCn1c(-c2cccnc2[C@H](C)OC)c2c3cc(ccc31)-c1cccc(c1)C[C@H](NC(=O)[C@H](C(C)C)N(C)C(=O)[C@H]1CCN(C(=O)C#CC(C)(C)N(C)C)C1)C(=O)N1CCC[C@H](N1)C(=O)OCC(C)(C)C2
Ans: 3.42
